biological target: Sodium-dependent noradrenaline transporter (Homo sapiens, UniProt P23975)
Sequence (P23975 whole entry): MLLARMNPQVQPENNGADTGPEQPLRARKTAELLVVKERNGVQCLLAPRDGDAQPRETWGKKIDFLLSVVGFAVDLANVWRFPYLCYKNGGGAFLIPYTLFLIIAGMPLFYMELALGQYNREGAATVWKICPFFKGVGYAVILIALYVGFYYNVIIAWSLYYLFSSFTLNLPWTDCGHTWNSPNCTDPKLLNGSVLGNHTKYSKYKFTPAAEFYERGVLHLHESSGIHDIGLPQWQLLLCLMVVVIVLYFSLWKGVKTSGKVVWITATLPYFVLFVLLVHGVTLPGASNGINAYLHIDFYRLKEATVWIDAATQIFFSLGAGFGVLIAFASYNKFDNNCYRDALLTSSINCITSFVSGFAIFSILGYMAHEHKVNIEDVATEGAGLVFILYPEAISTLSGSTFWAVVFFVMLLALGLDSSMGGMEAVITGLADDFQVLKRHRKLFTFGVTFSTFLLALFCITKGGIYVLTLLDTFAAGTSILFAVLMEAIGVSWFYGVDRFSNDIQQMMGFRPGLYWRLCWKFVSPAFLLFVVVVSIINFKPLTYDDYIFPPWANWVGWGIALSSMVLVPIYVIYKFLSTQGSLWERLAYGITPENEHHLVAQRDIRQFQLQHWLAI
property.label: Ki (nM)

{"columns": ["smiles.str", "qualifying.sign", "numeric.value"],
 "data": [
  ["COC(=O)[C@H]1[C@@H](c2ccc(C)cc2)C[C@@H]2CC[C@H]1N2C/C=C/I", ">", 500],
  ["COC(=O)[C@H]1[C@@H](c2ccc(C)cc2)C[C@@H]2CC[C@H]1N2C/C=C(\\I)C(F)(F)F", "=", 426],
  ["COC(=O)[C@H]1[C@@H](c2ccc(C)cc2)C[C@@H]2CC[C@H]1N2C/C(I)=C/C(F)(F)F", "=", 188]
]}
